biological target: KDR(h) (Homo sapiens); construct: purchased Upstate Biotechnology (Dundee, UK), KinaseProfiler service; test: Upstate KinaseProfiler enzyme assay, KDR; type: biochemical; conditions: 500 nM compound; read-out: Percent inhibition at 500 nM KDR(h)
Sequence (P35968 20-1356): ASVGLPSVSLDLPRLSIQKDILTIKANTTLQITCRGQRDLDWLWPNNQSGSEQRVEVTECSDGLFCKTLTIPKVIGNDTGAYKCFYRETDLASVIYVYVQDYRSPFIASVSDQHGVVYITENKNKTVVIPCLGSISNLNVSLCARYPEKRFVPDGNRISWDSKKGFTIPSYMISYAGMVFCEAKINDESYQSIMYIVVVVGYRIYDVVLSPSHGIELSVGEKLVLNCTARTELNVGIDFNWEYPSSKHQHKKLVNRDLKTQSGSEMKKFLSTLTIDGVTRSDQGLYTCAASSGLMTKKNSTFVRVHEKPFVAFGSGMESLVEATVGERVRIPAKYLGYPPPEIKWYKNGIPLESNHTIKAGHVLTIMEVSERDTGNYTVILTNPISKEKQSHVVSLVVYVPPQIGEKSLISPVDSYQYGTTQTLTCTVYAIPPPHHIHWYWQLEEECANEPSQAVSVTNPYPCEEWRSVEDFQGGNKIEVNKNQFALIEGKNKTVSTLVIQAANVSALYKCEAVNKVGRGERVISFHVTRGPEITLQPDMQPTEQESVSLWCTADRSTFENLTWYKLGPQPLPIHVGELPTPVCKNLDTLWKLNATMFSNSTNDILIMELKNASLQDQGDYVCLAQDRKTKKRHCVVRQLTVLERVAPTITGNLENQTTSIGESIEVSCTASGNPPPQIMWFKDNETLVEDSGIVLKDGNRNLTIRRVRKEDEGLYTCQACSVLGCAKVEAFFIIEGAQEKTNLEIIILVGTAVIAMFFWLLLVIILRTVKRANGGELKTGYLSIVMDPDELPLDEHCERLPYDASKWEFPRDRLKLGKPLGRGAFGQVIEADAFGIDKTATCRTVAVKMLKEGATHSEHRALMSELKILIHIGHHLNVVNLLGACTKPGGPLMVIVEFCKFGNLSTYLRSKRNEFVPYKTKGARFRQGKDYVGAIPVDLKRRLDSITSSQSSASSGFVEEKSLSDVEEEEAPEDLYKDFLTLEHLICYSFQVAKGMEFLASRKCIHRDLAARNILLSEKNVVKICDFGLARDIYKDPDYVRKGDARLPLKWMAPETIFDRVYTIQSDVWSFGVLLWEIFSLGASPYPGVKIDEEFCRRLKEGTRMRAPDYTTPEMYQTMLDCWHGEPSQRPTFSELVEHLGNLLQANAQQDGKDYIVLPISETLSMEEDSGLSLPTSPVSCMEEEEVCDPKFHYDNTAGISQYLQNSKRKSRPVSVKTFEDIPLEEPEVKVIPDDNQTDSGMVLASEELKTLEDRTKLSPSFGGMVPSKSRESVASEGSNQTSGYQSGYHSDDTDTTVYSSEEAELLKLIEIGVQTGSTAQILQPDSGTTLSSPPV
Readout Name: inhibition at 0.5 µM (%)
Respond numerically; units are % and should not be typed.

Illustrative cases are given below, each with its answer.
{"Compound": "C=CC(=O)Nc1ccc(Sc2ccnc(Nc3cccc(C(=O)OC)c3)n2)cc1 [Compound 356]", "Readout Name": "inhibition at 0.5 µM", "Recorded Measurement": 100}
{"Compound": "C=CC(=O)N1CCCc2cc(Sc3nc(Nc4ccc(N5CCOCC5)cc4)ncc3C)ccc21 [Compound 168]", "Readout Name": "inhibition at 0.5 µM", "Recorded Measurement": 96}
{"Compound": "C=CC(=O)Nc1ccc(Sc2ccnc(Nc3cc(OC)c(OC)c(OC)c3)n2)cc1 [Compound 71]", "Readout Name": "inhibition at 0.5 µM", "Recorded Measurement": 90}
{"Compound": "C=CC(=O)Nc1ccc(Sc2ccnc(Nc3ccc(N4CCN(C)CC4)cc3)n2)cc1 [Compound 238]", "Readout Name": "inhibition at 0.5 µM", "Recorded Measurement": 95}
{"Compound": "C=CC(=O)Nc1ccc(Sc2ccnc(Nc3ccccc3)n2)cc1 [Compound 350]", "Readout Name": "inhibition at 0.5 µM", "Recorded Measurement": 100}

Challenge: inhibition at 0.5 µM lookup needed for C=CC(=O)Nc1ccc(Sc2nc(Nc3cccc(CO)c3)ncc2C)cc1 [Compound 280] , thanks.
Response given: 97

Challenge: inhibition at 0.5 µM lookup needed for C=CC(=O)Nc1ccc(Sc2nc(Nc3ccc(C4CCN(C)CC4)cc3)ncc2C)cc1 [Compound 246] , thanks.
Response given: 93

Challenge: inhibition at 0.5 µM lookup needed for C=C(C)C(=O)Nc1cccc(Sc2ccnc(Nc3ccc(N4CCOCC4)cc3)n2)c1 [Compound 115] , thanks.
Response given: 100

----------
// GI50 lookup, one value per entry
target: BaF3 TELJAK2 cells (BafT_J2) (Homo sapiens, UniProt O60674); construct: fused on or other part: TEL (ETV6) N-terminal part, coding nucleotides 1-487, serves as the oligomerising partner; It is fused through a Sal I site to the JAK2 kinase domain and expressed from pTRE2 in BaF3 cells bearing pTET-off; P41212 (Transcription factor ETV6); assay: Cellular screening, BaF3 TEL:JAK2 cells, Alamar Blue; assay type: cell-based; conditions: 40 hr, read-out: BafT_J2 IC50_nM
Sequence (O60674 whole entry, change not shown, the tested form may be a part): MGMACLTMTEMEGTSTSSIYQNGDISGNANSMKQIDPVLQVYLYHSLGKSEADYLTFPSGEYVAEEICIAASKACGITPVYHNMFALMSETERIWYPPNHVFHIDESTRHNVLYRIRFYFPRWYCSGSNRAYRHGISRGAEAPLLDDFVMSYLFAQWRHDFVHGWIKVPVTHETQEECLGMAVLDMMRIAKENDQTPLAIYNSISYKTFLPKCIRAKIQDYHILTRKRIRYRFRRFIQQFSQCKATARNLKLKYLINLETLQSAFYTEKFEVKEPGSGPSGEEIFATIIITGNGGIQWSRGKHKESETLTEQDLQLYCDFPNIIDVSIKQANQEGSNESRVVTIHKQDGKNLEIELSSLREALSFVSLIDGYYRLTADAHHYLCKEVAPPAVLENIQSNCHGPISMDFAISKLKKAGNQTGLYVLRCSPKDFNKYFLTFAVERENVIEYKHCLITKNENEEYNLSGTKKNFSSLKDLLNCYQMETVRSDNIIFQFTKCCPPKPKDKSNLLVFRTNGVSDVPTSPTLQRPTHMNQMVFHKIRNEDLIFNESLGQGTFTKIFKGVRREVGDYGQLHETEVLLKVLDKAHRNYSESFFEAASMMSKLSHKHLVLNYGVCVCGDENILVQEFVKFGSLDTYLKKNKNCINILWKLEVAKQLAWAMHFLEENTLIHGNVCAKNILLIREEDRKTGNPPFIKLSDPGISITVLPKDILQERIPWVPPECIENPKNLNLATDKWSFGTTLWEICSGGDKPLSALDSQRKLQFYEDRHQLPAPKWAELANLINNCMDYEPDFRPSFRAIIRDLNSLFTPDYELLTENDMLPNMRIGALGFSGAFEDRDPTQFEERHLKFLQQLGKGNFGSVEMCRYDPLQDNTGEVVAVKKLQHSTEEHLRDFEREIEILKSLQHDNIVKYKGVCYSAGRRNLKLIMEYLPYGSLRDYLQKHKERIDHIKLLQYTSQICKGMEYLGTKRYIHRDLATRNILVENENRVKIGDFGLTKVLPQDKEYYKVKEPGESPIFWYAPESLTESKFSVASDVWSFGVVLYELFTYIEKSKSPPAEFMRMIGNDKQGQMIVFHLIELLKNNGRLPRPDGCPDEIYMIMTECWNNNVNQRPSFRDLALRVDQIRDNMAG

{"Compound": "C=CC(=O)Nc1ccc(Sc2nc(Nc3ccc(N4CCC(CO)CC4)cc3)ncc2Br)cc1 [Compound 253]", "GI50": "< 20 µM"}

Challenge: GI50 lookup needed for C=CC(=O)Nc1ccc(Sc2nc(Nc3ccc4c(c3)OCO4)ncc2C)cc1 [Compound 284] , thanks.
Response given: < 20 µM

Challenge: GI50 lookup needed for C=CC(=O)Nc1cccc(Sc2ccnc(Nc3cccc(N4CCOCC4)c3)n2)c1 [Compound 110] , thanks.
Response given: < 20 µM

----------
Target: BaF3 TELJAK3 cells (Homo sapiens)
Construct: fused on or other part: TEL (ETV6) N-terminal part, coding nucleotides 1-487, serves as the oligomerising partner; It is fused through a Sal I site to the JAK3 kinase domain and expressed from pTRE2 in BaF3 cells bearing pTET-off; P41212 (Transcription factor ETV6)
Sequence (P52333 1-1124): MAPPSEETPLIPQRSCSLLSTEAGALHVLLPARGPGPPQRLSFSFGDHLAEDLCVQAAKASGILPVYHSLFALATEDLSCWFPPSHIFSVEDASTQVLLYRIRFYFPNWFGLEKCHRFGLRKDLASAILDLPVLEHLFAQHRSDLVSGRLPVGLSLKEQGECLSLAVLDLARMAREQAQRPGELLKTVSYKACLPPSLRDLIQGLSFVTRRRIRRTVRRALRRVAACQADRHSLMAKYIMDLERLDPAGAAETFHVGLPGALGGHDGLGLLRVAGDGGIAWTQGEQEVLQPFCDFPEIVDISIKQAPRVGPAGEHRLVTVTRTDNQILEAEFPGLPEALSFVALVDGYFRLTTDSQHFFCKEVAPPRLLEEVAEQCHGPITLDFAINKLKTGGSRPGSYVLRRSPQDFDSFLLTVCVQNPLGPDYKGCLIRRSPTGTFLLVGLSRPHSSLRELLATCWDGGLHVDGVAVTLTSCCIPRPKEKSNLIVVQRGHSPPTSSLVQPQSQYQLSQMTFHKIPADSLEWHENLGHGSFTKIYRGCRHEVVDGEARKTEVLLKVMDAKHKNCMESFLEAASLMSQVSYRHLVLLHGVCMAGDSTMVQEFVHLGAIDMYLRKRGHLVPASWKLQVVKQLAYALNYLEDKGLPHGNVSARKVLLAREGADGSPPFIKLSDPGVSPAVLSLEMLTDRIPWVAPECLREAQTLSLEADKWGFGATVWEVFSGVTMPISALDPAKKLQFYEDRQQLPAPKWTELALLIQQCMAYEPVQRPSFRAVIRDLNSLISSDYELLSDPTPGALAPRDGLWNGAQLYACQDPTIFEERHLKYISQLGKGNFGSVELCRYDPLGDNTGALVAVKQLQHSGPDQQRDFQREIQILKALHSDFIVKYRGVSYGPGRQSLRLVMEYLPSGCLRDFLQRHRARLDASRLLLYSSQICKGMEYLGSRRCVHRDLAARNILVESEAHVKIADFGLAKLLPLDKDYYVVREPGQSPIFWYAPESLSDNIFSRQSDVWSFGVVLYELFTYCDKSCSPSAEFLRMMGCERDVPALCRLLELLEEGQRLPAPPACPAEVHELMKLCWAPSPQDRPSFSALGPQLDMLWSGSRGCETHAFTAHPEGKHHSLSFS
Experiment: Cellular screening, BaF3 TEL:JAK3 cells, Alamar Blue
Assay type: cell-based
Conditions: 40 hr, read-out: BafT_J3 IC50_nM
Readout Name: GI50

Illustrative cases are given below, each with its answer.
{"Chem Smiles": "C=CC(=O)Nc1ccc(Sc2nc(Nc3ccc(N4CCC(CO)CC4)cc3)ncc2Br)cc1", "GI50": "< 1000 nM"}
{"Chem Smiles": "C=CC(=O)Nc1ccc(Sc2nc(Nc3ccc(NS(C)(=O)=O)cc3)ncc2C)cc1", "GI50": "< 1000 nM"}
{"Chem Smiles": "CC(=O)Nc1ccc(Sc2ccnc(Nc3ccc(N4CCC(N5CCCC5)CC4)cc3)n2)cc1", "GI50": "< 5000 nM"}
{"Chem Smiles": "Cc1cnc(Nc2ccc(N3CCOCC3)cc2)nc1Sc1ccc(N2C(=O)CCC2=O)cc1", "GI50": "> 20000 nM"}
{"Chem Smiles": "CCOC(=O)/C=C\\C(=O)Nc1ccc(Sc2nc(Nc3ccc(N4CCOCC4)cc3)ncc2C)cc1", "GI50": "< 5000 nM"}

Switching to the query record.
Challenge: GI50 lookup needed for `C=CC(=O)Nc1ccc(Sc2nc(Nc3ccc(O)cc3)ncc2C)cc1` , thanks.
Response given: < 1000 nM
